Data origin: patent US5366982A

system name: leukotriene B4 receptors (Cavia porcellus, UniProt H0VYV8)
Sequence (H0VYV8 1-348): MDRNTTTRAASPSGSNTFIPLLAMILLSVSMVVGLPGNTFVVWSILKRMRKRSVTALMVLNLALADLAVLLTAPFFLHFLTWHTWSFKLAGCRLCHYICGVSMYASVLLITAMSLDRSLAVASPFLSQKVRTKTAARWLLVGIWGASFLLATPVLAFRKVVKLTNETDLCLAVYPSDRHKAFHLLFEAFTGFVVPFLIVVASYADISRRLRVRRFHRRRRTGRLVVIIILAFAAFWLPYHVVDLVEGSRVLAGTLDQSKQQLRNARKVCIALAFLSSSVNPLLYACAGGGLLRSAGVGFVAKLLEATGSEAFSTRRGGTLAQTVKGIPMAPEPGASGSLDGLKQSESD
procedure text: biochemical
Type: binding, guinea-pig
test parameters: read-out: Binding (Cheng) % Inhibition at 10 μM
measured endpoint: inhibition at 10 µM (%)
Just the number please, in %, no unit attached.

Examples with answers:
*Q* Please give the measured inhibition at 10 µM for this molecule: `O=C(O)CCCCC=Cc1cc(-c2ccccc2)c2ccccc2n1`
*A* 27

*Q* Please give the measured inhibition at 10 µM for this molecule: `O=C(O)CCCCCCCSc1cc(-c2ccccc2)c2ccccc2n1`
*A* 31

*Q* Please give the measured inhibition at 10 µM for this molecule: `O=C(CCCCCOc1cc(-c2ccccc2)c2ccccc2n1)N1CCCC1`
*A* 12

*Q* Please give the measured inhibition at 10 µM for this molecule: `COc1ccc(-c2cc(OCCCCCC(=O)O)nc(-c3ccccc3)c2)cc1OC`
*A* 21

Further cases:
*Q* Please give the measured inhibition at 10 µM for this molecule: `O=C(O)CCCCCCOc1ncc(-c2ccccc2)c(-c2ccccc2)n1`
*A* 22

*Q* Please give the measured inhibition at 10 µM for this molecule: `O=C(O)CCCCCOc1ncc(-c2ccccc2)c(-c2ccccc2)n1`
*A* 35

*Q* Please give the measured inhibition at 10 µM for this molecule: `O=C(O)CCCCCOc1ncc(-c2ccc(Cl)cc2)c(-c2ccc(Cl)cc2)n1`
*A* 48

*Q* Please give the measured inhibition at 10 µM for this molecule: `COc1ccccc1-c1cc(OCCCCC(C)(C)C(=O)O)nc2ccccc12`
*A* 36

---

# log10 IC50 measurements, system: leukotriene B4 receptors (Cavia porcellus, UniProt H0VYV8)
// stored as log10 of IC50 expressed in nM

Examples with answers:
*Q* Request: log10 IC50, test system leukotriene B4 receptors (Cavia porcellus, UniProt H0VYV8), entry `CC(C)(CCCCOc1cc(-c2ccc(Cl)cc2)cc(-c2ccccc2)n1)C(=O)O`
*A* 2.00

*Q* Request: log10 IC50, test system leukotriene B4 receptors (Cavia porcellus, UniProt H0VYV8), entry `O=C(O)CNC(=O)CCCOc1cc(-c2ccccc2)cc(-c2ccccc2)n1`
*A* 1.20

*Q* Request: log10 IC50, test system leukotriene B4 receptors (Cavia porcellus, UniProt H0VYV8), entry `O=C(O)CCCCCOc1cc(-c2ccc([N+](=O)[O-])cc2)cc(-c2ccccc2)n1`
*A* 1.70

*Q* Request: log10 IC50, test system leukotriene B4 receptors (Cavia porcellus, UniProt H0VYV8), entry CCC(CCCCOc1cc(-c2ccc(Cl)cc2)c2ccccc2n1)C(=O)O (centres unmarked)
*A* 2.30

*Q* Request: log10 IC50, test system leukotriene B4 receptors (Cavia porcellus, UniProt H0VYV8), entry `O=C(O)CCCCOc1cc(-c2ccccc2)cc(-c2ccccc2)n1`
*A* 1.70

*Q* Request: log10 IC50, test system leukotriene B4 receptors (Cavia porcellus, UniProt H0VYV8), entry `CC(C)(CCCCOc1cc(-c2ccc([N+](=O)[O-])cc2)c2ccccc2n1)C(=O)O`
*A* 2.18

*Q* Request: log10 IC50, test system leukotriene B4 receptors (Cavia porcellus, UniProt H0VYV8), entry CC(CCCCOc1cc(-c2ccc(Cl)cc2)c2ccccc2n1)C(=O)O (centres unmarked)
*A* 1.48

*Q* Request: log10 IC50, test system leukotriene B4 receptors (Cavia porcellus, UniProt H0VYV8), entry `Cc1ccc(-c2cc(OCCCCCC(=O)O)nc(-c3ccccc3)c2)cc1`
*A* 1.18

*Q* Request: log10 IC50, test system leukotriene B4 receptors (Cavia porcellus, UniProt H0VYV8), entry `O=C(O)CCCCCOc1cc(-c2ccc(F)cc2)cc(-c2ccccc2)n1`
*A* 0.48

*Q* Request: log10 IC50, test system leukotriene B4 receptors (Cavia porcellus, UniProt H0VYV8), entry `CC(C)(CCCCOc1cc(-c2cccs2)c2ccccc2n1)C(=O)O`
*A* 2.30

Further cases:
*Q* Request: log10 IC50, test system leukotriene B4 receptors (Cavia porcellus, UniProt H0VYV8), entry `CNc1ccc(-c2cc(OCCCCC(C)(C)C(=O)O)nc(-c3ccccc3)c2)cc1`
*A* 0.90

*Q* Request: log10 IC50, test system leukotriene B4 receptors (Cavia porcellus, UniProt H0VYV8), entry `CC(C)(CCCCOc1cc(-c2ccccc2)cc(-c2ccsc2)n1)C(=O)O`
*A* 0.70

*Q* Request: log10 IC50, test system leukotriene B4 receptors (Cavia porcellus, UniProt H0VYV8), entry `CC(C)(CCCCOc1cc(-c2ccccc2)cc(-c2ccccc2)n1)c1nnn[nH]1`
*A* 0.85

*Q* Request: log10 IC50, test system leukotriene B4 receptors (Cavia porcellus, UniProt H0VYV8), entry `CC(C)(CCCCOc1ccc(-c2ccccc2)c(-c2ccccc2)n1)C(=O)O`
*A* 4.00
